Origin of measurements: paper PMC7170299

Items are presented alongside their recorded Superoxide IC50.
Measurement protocol: Superoxide scavenging assay (pyrogallol autoxidation)
Conditions: mean ± SEM of three experiments; pyrogallol autoxidation, 325 nm
The response must be a number in µg/mL with no trailing unit.

// Input: NC(=S)N1N=C(c2ccc(Cl)c(Cl)c2)CC1c1cn(-c2ccccc2)nc1-c1ccc2ccccc2c1 (centres unmarked) . Output its Superoxide IC50 only.
87.31

// Input: Clc1ccc(C2=NOC(c3cn(-c4ccccc4)nc3-c3ccc4ccccc4c3)C2)cc1Cl (centres unmarked) . Output its Superoxide IC50 only.
168.77

// Input: Clc1ccc(C2=NN(c3ccccc3)C(c3cn(-c4ccccc4)nc3-c3ccc4ccccc4c3)C2)cc1Cl (centres unmarked) . Output its Superoxide IC50 only.
130.19

// Input: COc1ccc(C2=NN(c3ccccc3)C(c3cn(-c4ccccc4)nc3-c3ccc4ccccc4c3)C2)cc1 (centres unmarked) . Output its Superoxide IC50 only.
65.63

// Input: c1ccc(C2=NOC(c3cn(-c4ccccc4)nc3-c3ccc4ccccc4c3)C2)cc1 (centres unmarked) . Output its Superoxide IC50 only.
192.37

----------
Value type: melting point

As a guide, the following entries are already answered.
>>> df
                                   compound     value_type            val
0  Cc1ccc(C2=NN(c3ccccc3)C(c3cn(-c4ccccc4)nc3-c3ccc4ccccc4c3)C2)cc1 (stereo not shown)  melting point  198 to 199 °C
1  NC(=S)N1N=C(c2ccc(Cl)cc2)CC1c1cn(-c2ccccc2)nc1-c1ccc2ccccc2c1 (stereo not shown)  melting point  186 to 187 °C
2  Clc1ccc(C2=NOC(c3cn(-c4ccccc4)nc3-c3ccc4ccccc4c3)C2)cc1Cl (stereo not shown)  melting point  187 to 189 °C
3  COc1ccc(C2=NOC(c3cn(-c4ccccc4)nc3-c3ccc4ccccc4c3)C2)cc1 (stereo not shown)  melting point  197 to 198 °C
4  Clc1ccc(C2=NNC(c3cn(-c4ccccc4)nc3-c3ccc4ccccc4c3)C2)cc1Cl (stereo not shown)  melting point  195 to 196 °C
5  Clc1ccc(C2=NNC(c3cn(-c4ccccc4)nc3-c3ccc4ccccc4c3)C2)cc1 (stereo not shown)  melting point  190 to 191 °C

// Input: c1ccc(C2=NN(c3ccccc3)C(c3cn(-c4ccccc4)nc3-c3ccc4ccccc4c3)C2)cc1 (stereo not shown) . Output its melting point only.
187 to 188 °C

----------
Measurement protocol: Superoxide scavenging assay (pyrogallol autoxidation)
Conditions: mean ± SEM of three experiments; pyrogallol autoxidation, 325 nm
Items are presented alongside their recorded Superoxide IC50.

As a guide, the following entries are already answered.
>>> print(df.to_string())
                                   molecule         val
0  Clc1ccc(C2=NNC(c3cn(-c4ccccc4)nc3-c3ccc4ccccc4c3)C2)cc1 (stereo not drawn)  >200 µg/mL
1  O=C(/C=C/c1cn(-c2ccccc2)nc1-c1ccc2ccccc2c1)c1ccccc1  >200 µg/mL

// Input: Clc1ccc(C2=NN(c3ccccc3)C(c3cn(-c4ccccc4)nc3-c3ccc4ccccc4c3)C2)cc1 (stereo not drawn) . Output its Superoxide IC50 only.
>200 µg/mL
